Taken from paper PMC9482650.

- ASSAYED_TARGET: NHERF4_2, Q86UT5
- Sequence (Q86UT5 220-308): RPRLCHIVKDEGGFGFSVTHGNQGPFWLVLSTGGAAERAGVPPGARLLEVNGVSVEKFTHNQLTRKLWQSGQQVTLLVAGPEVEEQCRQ
- PROTOCOL_NOTES: holdup assay
- Parameters: key: below the threshold = too weak to quantify, mostly under pKd 3.1 to 4
- REPORTED_CONDITIONS: plain residues with an end cap or a label only (N-terminal biotin on a linker: ado-ado)

BINDER: KKMLQRRTLL [OR8G1, Q15617]
pKd: below the threshold
//
BINDER: MQHQRTHTRV [ZSCAN30, Q86W11]
pKd: below the threshold
//
BINDER: SLNANEVEWF [RNF130, Q86XS8]
pKd: below the threshold
//
BINDER: KPGKGSETVV [FZD4, Q9ULV1]
pKd: below the threshold
//
BINDER: DRIQSCLSDA [SBF1, O95248]
pKd: below the threshold
//
BINDER: VLYPREGTEV [FOXI1, Q12951]
pKd: below the threshold
//
BINDER: EKCGKEFSEF [PRKACA, P17612]
pKd: below the threshold
//
BINDER: LPAVCYDIDI [PTTG2, Q9NZH5]
pKd: below the threshold
//
BINDER: AQRARSPSDV [GPR12, P47775]
pKd: below the threshold
//
BINDER: LESTTVGTSV [KARS1, Q15046]
pKd: below the threshold
//
BINDER: TRKRSGEAAV [PFKM, P08237]
pKd: below the threshold
//
BINDER: PSVGSKKTVL [REELD1, A0A1B0GV85]
pKd: below the threshold
//
BINDER: NTANRRTTPV [CACNG2, Q9Y698]
pKd: below the threshold
//
BINDER: PYPTADHMLA [JUP, P14923]
pKd: below the threshold
//
BINDER: SRSVVESDEL [MYPN, Q86TC9]
pKd: below the threshold
//
BINDER: AEASVACSLC [PTGIR, P43119]
pKd: below the threshold
